Consider the following molecules; for each one, report its GI50.
System: LOX IMVI melanoma
PROCEDURE DETAILS: NCI tumour cell line growth inhibition, 48 h

Study these solved cases before continuing.
1. O=C1CC/C(=C\COc2ccc3ccc(=O)oc3c2)O1
6960 nM
2. CC(C)CCC[C@@H](C)[C@H]1CCC2C3=CCC4C(=O)C=CC(=O)C4C3CC[C@@]21C (some centres undefined)
227 nM

Give GI50 for all molecules that follow.
1. COc1ccc2c(c1)C(=O)c1c-2n(CCCN2CCOCC2)c(=O)c2cc([N+](=O)[O-])ccc12
2. Cc1cc2nc3c4cccc(O)c4n(CCN(C)C)c3nc2cc1C
3. CC1(C)Cc2c(Br)c(Br)c(Br)c(OCC(O)CN3CCOCC3)c2O1 (centres undefined)
4. C=C(C)[C@@H]1CC[C@]2(C(=O)NCCNCCNCCN)CC[C@]3(C)[C@H](CC[C@@H]4[C@@]5(C)CCC(=O)C(C)(C)[C@@H]5CC[C@]43C)[C@@H]12
5. COc1cc2c(cc1OCCCN1CCN(c3cc(=O)oc4c(C)c(OC)ccc34)CC1)N=C[C@@H]1CCCN1C2=O

Data returned:
1. < 10 nM
2. 1240 nM
3. 13600 nM
4. 8720 nM
5. 826 nM

Give GI50 for all molecules that follow.
1. Cc1ccc(Oc2nc3ccccc3cc2-c2nnc(Cn3c(COc4ccccc4)nc4ccccc43)o2)cc1
2. N/C(=N\c1nc2ccccc2s1)NC(=O)Nc1cccc2ccccc12

Data returned:
1: 1590 nM; 2: 825 nM

---

Test system: RXF 393 renal
PROCEDURE DETAILS: NCI tumour cell line growth inhibition, 48 h
MEASUREMENT KIND: TGI (µM)
Give bare numbers, in µM.

1) Clc1ncnc2c1ncn2CCCCCCCCCCCCn1cnc2c(Cl)ncnc21
32.2

Let us examine a further case.
Data request: Please look at NCCCCNC1(c2cc3ccccc3s2)CCCCC1 and tell me its recorded TGI on RXF 393 renal.
Data returned: 14.9

---

Tested on: SK-MEL-5 melanoma
PROCEDURE DETAILS: NCI tumour cell line growth inhibition, 48 h
MEASUREMENT KIND: TGI

Study these solved cases before continuing.
1. O=C(c1ccccc1)N1C(=S)N(c2ccc([N+](=O)[O-])cc2)C(=Nc2ccccc2)C1=Nc1ccccc1
> 100 µM
2. COc1ccc2c(c1)CC[C@@H]1[C@@H]2CC[C@]2(C)C(=O)/C(=C/c3cc(OC)c(OC)c(OC)c3)C[C@@H]12
> 100 µM
3. O=C1C[C@H](c2ccccc2)C2(C(=O)c3ccccc3C2=O)[C@H](c2ccccc2)C1
> 100 µM

Data request: Name the recorded TGI of the molecule listed here: Cc1cc(N=C2C=C(Nc3cc(C)on3)C(=O)c3ccccc32)no1
Data returned: 15.9 µM

---

Tested on: OVCAR-8 ovarian
PROCEDURE DETAILS: NCI tumour cell line growth inhibition, 48 h; in the data active means GI50 below about 0.43 µM; inactive means the rest
# output must be one of TRUE (active), FALSE (inactive)

Data request: Lab log entry: COc1ccc(-c2csc3c2-n2cccc2C3=O)cc1O — outcome as called in the assay?
Data returned: TRUE

---

Test system: NCI-H23 lung
PROCEDURE DETAILS: NCI tumour cell line growth inhibition, 48 h; in the data active = GI50 below about 0.43 µM; inactive = the rest
# output must be one of true (1) (active), false (0) (inactive)

As a guide, the following entries are already answered.
1. COc1cc2ncn(-c3cc(OCc4ccccc4S(C)(=O)=O)c(C#N)s3)c2cc1OC
false (0)
2. COC(=O)[C@@H]1CCCN1C(=O)[C@H]1CCCN1C(=O)[C@@H](Cc1c[nH]c2ccccc12)NC(=S)Nc1cc(C(F)(F)F)cc(C(F)(F)F)c1
false (0)
3. Cc1cc(NC(=O)NC(=O)c2ccccc2NC(=O)CN)ccc1Oc1ncc(Br)cn1
true (1)

Data request: Lab log entry: COc1ccc(/C=C\c2cc(OC)c(OC)c(OC)c2)cc1OCC(=O)Nc1nc2ccc(OC(F)(F)F)cc2s1 — outcome as called in the assay?
Data returned: false (0)

Data request: Lab log entry: Cc1ccc(F)cc1NC(=O)c1cc(Cl)ccc1Nc1ccccc1 — outcome as called in the assay?
Data returned: false (0)

Data request: Lab log entry: COc1ccc2[nH]cc(-c3nc(-c4c[nH]c5ccncc45)cs3)c2c1 — outcome as called in the assay?
Data returned: false (0)

Data request: Lab log entry: Oc1cc(Cl)ccc1Cc1ccc(Cl)cc1O — outcome as called in the assay?
Data returned: false (0)

Data request: Lab log entry: COc1cc(OC)cc(-c2cncn2-c2ccc(-c3nc4cc(OC)cc(OC)c4s3)cc2)c1 — outcome as called in the assay?
Data returned: false (0)

Data request: Lab log entry: COc1ccc(-c2nc3sc4c(c3c(=O)[nH]2)CCCC4)c2ccccc12 — outcome as called in the assay?
Data returned: false (0)

Data request: Lab log entry: CCCCCCCCCCCCCCCCn1cc[n+](Cc2ccccc2)c1C — outcome as called in the assay?
Data returned: true (1)

Data request: Lab log entry: COc1ccc2c(c1)[C@@]1(C)CCC3c4ccc(O)cc4CCC3C1C2 (stereo not given in full) — outcome as called in the assay?
Data returned: false (0)

Data request: Lab log entry: CNCCOC(=O)/C=C1/CCC2C(C(O)CC3C(C)(C(=O)OC)CCCC23C)C1C (stereo not given) — outcome as called in the assay?
Data returned: true (1)

---

Consider the following compounds; for each one, report its log10(TGI).
Test system: UACC-62 melanoma
PROCEDURE DETAILS: NCI tumour cell line growth inhibition, 48 h
The base-10 logarithm of TGI, taken with TGI in µM, is what appears here.

1. NC1=C(Cl)C(=O)c2ccccc2C1=O
0.44
2. NC1=NC(c2ccc(F)cc2)C2=C(N1)c1ccc3ccccc3c1OCC2 (stereo unspecified)
1.49
3. Cc1ccc2nc(N/N=C/c3cccc(C)n3)cc(C)c2c1
1.47
4. NCCCCNC1(c2cc3ccccc3s2)CCCCC1
0.58
5. CCC(C)C1(O)OC2CC3(C)OC(=CC3=O)/C(C)=C\C3OC(=O)C1(C)C32 (stereo unspecified)
1.55
6. CCC(=O)c1ccc2c(c1)N(CCCN1CCN(CCO)CC1)c1ccccc1S2
0.67

Give log10(TGI) for all compounds that follow.
1. CC(=O)NC1=C(NCc2ccc(Cl)cc2)C(=O)c2ccccc2C1=O
2. Cc1ccc(Oc2nc3ccccc3cc2-c2nnc(Cn3c(COc4ccccc4)nc4ccccc43)o2)cc1

Data returned:
1. 0.94
2. 1.32

---

System: IGROV1 ovarian
PROCEDURE DETAILS: NCI tumour cell line growth inhibition, 48 h; in the data active means GI50 below about 0.43 µM; inactive means the rest
# output must be one of active, inactive

As a guide, the following entries are already answered.
1) Cc1cc(C)c2c(N)c3cccc(C)c3nc2n1
inactive
2) CC1(C)[C@@H]2C[C@H]1C(Cc1cccc(C[C@H]3c4cc(-c5ccccn5)ncc4[C@H]4C[C@@H]3C4(C)C)c1)c1cc(-c3ccccn3)ncc12 (stereo partly specified)
inactive
3) CNCCOC(=O)/C=C1/CCC2C(C(O)CC3C(C)(C(=O)OC)CCCC23C)C1C (stereo unspecified)
active
4) N=C(N)c1ccc(-c2ccc(-c3ccc(F)cc3)o2)o1
inactive
5) Oc1ccc(CN(Cc2ccc(C(F)(F)F)cc2)Cc2ccc(O)c3ncccc23)c2cccnc12
active

Data request: Lab log entry: O=[N+]([O-])/C=C/c1ccc([N+](=O)[O-])cc1 — outcome as called in the assay?
Data returned: inactive

---

Test system: HCT-15 colon
PROCEDURE DETAILS: NCI tumour cell line growth inhibition, 48 h; in the data active means GI50 below about 0.43 µM; inactive means the rest
# output must be one of active, inactive

As a guide, the following entries are already answered.
1. CCCCCCN1CCN(Cc2ccc(N(CC)CC)cc2)C(=O)C1=O
inactive
2. O=[N+]([O-])/C=C/c1ccc([N+](=O)[O-])cc1
inactive
3. N=C(N)c1ccc(-c2ccc(-c3ccc(F)cc3)o2)o1
inactive
4. COc1ccc2c(c1)[C@@]1(C)CCC3c4ccc(O)cc4CCC3C1C2 (stereo partly specified)
inactive
5. O=C(/C=C\c1ccc2ccccc2n1)c1cc(Cl)ccc1O
inactive
6. COc1cc(-c2n/c(=C\c3c(O)[nH]c4ccccc34)cc3c2=Nc2ccccc2-3)cc(OC)c1OC
inactive

Data request: Lab log entry: NC1=NC(c2ccc(F)cc2)C2=C(N1)c1ccc3ccccc3c1OCC2 (stereo unspecified) — outcome as called in the assay?
Data returned: inactive

Data request: Lab log entry: OCc1ccc(Oc2c3ccccc3nc3occc23)cc1 — outcome as called in the assay?
Data returned: inactive

Data request: Lab log entry: O=C1C=CC(=O)c2c1ncc1c2nc2sccn21 — outcome as called in the assay?
Data returned: inactive

Data request: Lab log entry: CCC[CH2][Sn]1([CH2]CCC)[O]C(=O)CN=Cc2ccccc2[O]1 — outcome as called in the assay?
Data returned: active

Data request: Lab log entry: O=C(Nc1cccc(-n2ccc3c(NC(=O)c4ccccc4)nccc32)c1)c1cc(N2CCOCC2)cc(C(F)(F)F)c1 — outcome as called in the assay?
Data returned: active
